- Assay Info: Atogepant-itraconazole drug interaction study: atogepant plasma PK
- Type: in vivo, human
- Particulars: both sexes, human, plasma, oral; Treatment B: atogepant 60 mg + steady state itraconazole 200 mg

{"Chem Smiles": "C[C@@H]1[C@H](c2c(F)ccc(F)c2F)C[C@H](NC(=O)c2cnc3c(c2)C[C@@]2(C3)C(=O)Nc3ncccc32)C(=O)N1CC(F)(F)F", "AUC(0-inf)": "18900 ng·h/mL"}

----------
- Assay Info: Food effect study (high-fat meal), atogepant IR tablet: plasma PK
- Format: in vivo, human
- Particulars: Study Intervention B: 1 × 60 mg IR tablet, fasted
- Method: A single-center, randomized, open-label, single-dose, 2-period cross-over study was conducted to evaluate the effect of a high-fat meal on the systemic exposure of atogepant following single-dose administration of an immediate release (IR) tablet in healthy adult participants. […] Atogepant plasma concentrations were determined using a validated LC-MS/MS assay and the pharmacokinetic (PK) parameters were calculated using WinNonlin. […]
Reported Property: Tlag (median) (h)

{"Compound": "C[C@@H]1[C@H](c2c(F)ccc(F)c2F)C[C@H](NC(=O)c2cnc3c(c2)C[C@@]2(C3)C(=O)Nc3ncccc32)C(=O)N1CC(F)(F)F [atogepant]", "Unit Tag": "h", "Numeric Readout": 0}

----------
- System: plasma protein
- Assay Info: Hepatic impairment study: atogepant plasma protein binding
- Type: in vitro ADME, human
- Particulars: human, severe-impaired, 0 hr (predose, spiked sample); read-out: plasma protein binding, percent bound (converted)

{"Chem Smiles": "C[C@@H]1[C@H](c2c(F)ccc(F)c2F)C[C@H](NC(=O)c2cnc3c(c2)C[C@@]2(C3)C(=O)Nc3ncccc32)C(=O)N1CC(F)(F)F", "fraction unbound": 0.0552}

----------
- Assay Info: Food effect study (high-fat meal), atogepant IR tablet: plasma PK
- Assay type: in vivo, human
- Particulars: both sexes, human, plasma, oral, 60 mg, Fed (Test); read-out: Tmax Median
Reported Property: Tmax (h)

{"Chem Smiles": "C[C@@H]1[C@H](c2c(F)ccc(F)c2F)C[C@H](NC(=O)c2cnc3c(c2)C[C@@]2(C3)C(=O)Nc3ncccc32)C(=O)N1CC(F)(F)F", "Numeric Readout": 2.01}

----------
- Assay Info: Atogepant-topiramate interaction study, cohort 1: atogepant steady-state PK
- Format: in vivo, human
- Particulars: both sexes, human, plasma, 60 mg, Atogepant Alone; read-out: Cmax,ss Geometric LSM

{"Compound": "C[C@@H]1[C@H](c2c(F)ccc(F)c2F)C[C@H](NC(=O)c2cnc3c(c2)C[C@@]2(C3)C(=O)Nc3ncccc32)C(=O)N1CC(F)(F)F [atogepant]", "Unit Tag": "ng/mL", "Cmax": 535}

----------
- Assay Info: Hepatic impairment study: atogepant plasma PK
- Type: in vivo, human
- Particulars: human, plasma, po, 60 mg, severe hepatic impairment, single 60 mg oral dose; read-out: AUC0-∞

{"Chem Smiles": "C[C@@H]1[C@H](c2c(F)ccc(F)c2F)C[C@H](NC(=O)c2cnc3c(c2)C[C@@]2(C3)C(=O)Nc3ncccc32)C(=O)N1CC(F)(F)F", "AUC(0-inf)": "3840 ng·h/mL"}

----------
- Assay Info: Atogepant-itraconazole drug interaction study: atogepant plasma PK
- Format: in vivo, human
- Particulars: both sexes, human, plasma, oral; Treatment B: atogepant 60 mg + steady state itraconazole 200 mg
Reported Property: AUC(0-t) (ng·h/mL)

{"Compound": "C[C@@H]1[C@H](c2c(F)ccc(F)c2F)C[C@H](NC(=O)c2cnc3c(c2)C[C@@]2(C3)C(=O)Nc3ncccc32)C(=O)N1CC(F)(F)F [atogepant]", "Reported Property": "AUC(0-t)", "Numeric Readout": 18500}
